Assay: Solubility of compound A in water with added acid or amino acid, and pH of the saturated solution
Type: physicochemical
Details: water, with Methionine; per ml of water
measure name: solubility at 4 h (µg/mL)

C[C@]12C[C@@H](N)[C@H]1CN(c1nc3c(cc1F)c(=O)c(C(=O)O)cn3C1CC1)C2 (relative stereo)	1500

====

Test: Solubility of compound A in water with added acid or amino acid, and pH of the saturated solution
Format: physicochemical
Settings: water, with L-valine; per ml of water
Experimental: The organic acids suitable as solubilizing agents are chosen depending on the correlationship between the organic acid and the physical properties of the selected quinolone compound. Therefore, a varity of organic acids and amino acids were evaluated to determine whether certain acids are suitable as solubilizing agents capable of increasing the water solubility of compound A and the pH of the aqueous solution is suitable for injection and/or infusion solutions. […]
measure name: solubility at 4 h (µg/mL)

C[C@]12C[C@@H](N)[C@H]1CN(c1nc3c(cc1F)c(=O)c(C(=O)O)cn3C1CC1)C2 (relative stereo) [compound A]	1300

====

Assay: Solubility of compound A in water with added acid or amino acid, and pH of the saturated solution
Assay type: physicochemical
Conditions: water, with Succinic acid; per ml of water
measure name: solubility at 4 h (mg/mL)

C[C@]12C[C@@H](N)[C@H]1CN(c1nc3c(cc1F)c(=O)c(C(=O)O)cn3C1CC1)C2 (relative stereo)	47.6

====

Experiment: Solubility of compound A in water with added acid or amino acid, and pH of the saturated solution
Assay type: physicochemical
Settings: water, with Asparagine; per ml of water
measure name: solubility at 4 h (µg/mL)

C[C@]12C[C@@H](N)[C@H]1CN(c1nc3c(cc1F)c(=O)c(C(=O)O)cn3C1CC1)C2 (relative stereo) [compound A]	2100

====

Assay: Solubility of compound A in water with added acid or amino acid, and pH of the saturated solution
Assay type: physicochemical
Settings: water, with Histidine; per ml of water
measure name: solubility at 4 h (µg/mL)

C[C@]12C[C@@H](N)[C@H]1CN(c1nc3c(cc1F)c(=O)c(C(=O)O)cn3C1CC1)C2 (relative stereo)	2100

====

Test: Solubility of compound A in water with added acid or amino acid, and pH of the saturated solution
Type: physicochemical
Conditions: water, with Hydrochloric acid; per ml of water
Description: The organic acids suitable as solubilizing agents are chosen depending on the correlationship between the organic acid and the physical properties of the selected quinolone compound. Therefore, a varity of organic acids and amino acids were evaluated to determine whether certain acids are suitable as solubilizing agents capable of increasing the water solubility of compound A and the pH of the aqueous solution is suitable for injection and/or infusion solutions. […]
measure name: solubility at 4 h (mg/mL)

C[C@]12C[C@@H](N)[C@H]1CN(c1nc3c(cc1F)c(=O)c(C(=O)O)cn3C1CC1)C2 (relative stereo) [compound A]	44.3

====

Test: Solubility of compound A in water with added acid or amino acid, and pH of the saturated solution
Assay type: physicochemical
Conditions: water, with Glutaric acid; per ml of water
measure name: solubility at 4 h (mg/mL)

C[C@]12C[C@@H](N)[C@H]1CN(c1nc3c(cc1F)c(=O)c(C(=O)O)cn3C1CC1)C2 (relative stereo) [compound A]	12.1

====

Experiment: Solubility of compound A in water with added acid or amino acid, and pH of the saturated solution
Assay type: physicochemical
Conditions: water, with Gluconic acid lactone; per ml of water
measure name: solubility at 4 h (mg/mL)

C[C@]12C[C@@H](N)[C@H]1CN(c1nc3c(cc1F)c(=O)c(C(=O)O)cn3C1CC1)C2 (relative stereo) [compound A]	28.1

====

Test: Solubility of compound A in water with added acid or amino acid, and pH of the saturated solution
Type: physicochemical
Details: water, with L-cysteine; per ml of water
measure name: solubility at 4 h (µg/mL)

C[C@]12C[C@@H](N)[C@H]1CN(c1nc3c(cc1F)c(=O)c(C(=O)O)cn3C1CC1)C2 (relative stereo) [compound A]	2300

====

Experiment: Solubility of compound A in water with added acid or amino acid, and pH of the saturated solution
Assay type: physicochemical
Conditions: water, with Malic acid; per ml of water
measure name: solubility at 4 h (mg/mL)

C[C@]12C[C@@H](N)[C@H]1CN(c1nc3c(cc1F)c(=O)c(C(=O)O)cn3C1CC1)C2 (relative stereo)	48.7

====

Test: Solubility of compound A in water with added acid or amino acid, and pH of the saturated solution
Type: physicochemical
Conditions: water, with Oxalic acid; per ml of water
measure name: solubility at 4 h (µg/mL)

C[C@]12C[C@@H](N)[C@H]1CN(c1nc3c(cc1F)c(=O)c(C(=O)O)cn3C1CC1)C2 (relative stereo) [compound A]	3500

====

Assay: Solubility of compound A in water with added acid or amino acid, and pH of the saturated solution
Type: physicochemical
Details: water, with Galacturonic (acid); per ml of water
Description: The organic acids suitable as solubilizing agents are chosen depending on the correlationship between the organic acid and the physical properties of the selected quinolone compound. Therefore, a varity of organic acids and amino acids were evaluated to determine whether certain acids are suitable as solubilizing agents capable of increasing the water solubility of compound A and the pH of the aqueous solution is suitable for injection and/or infusion solutions. […]
measure name: solubility at 4 h (mg/mL)

C[C@]12C[C@@H](N)[C@H]1CN(c1nc3c(cc1F)c(=O)c(C(=O)O)cn3C1CC1)C2 (relative stereo) [compound A]	18.3

====

Experiment: Solubility of compound A in water with added acid or amino acid, and pH of the saturated solution
Format: physicochemical
Conditions: water, with Threonine; per ml of water
measure name: solubility at 4 h (µg/mL)

C[C@]12C[C@@H](N)[C@H]1CN(c1nc3c(cc1F)c(=O)c(C(=O)O)cn3C1CC1)C2 (relative stereo)	1500

====

Experiment: Solubility of compound A in water with added acid or amino acid, and pH of the saturated solution
Format: physicochemical
Conditions: water, with Gluconic acid; per ml of water
measure name: solubility at 4 h (mg/mL)

C[C@]12C[C@@H](N)[C@H]1CN(c1nc3c(cc1F)c(=O)c(C(=O)O)cn3C1CC1)C2 (relative stereo)	33.4
